System: growth hormone secretion
MEASUREMENT NOTES: GHRP induced growth hormone secretion, intravenous administration (Rat IV)
Format: in vivo
CONDITION NOTES: Table III; iv injection, serum GH 10 min after injection
Non-standard residues stand in square brackets, D forms with d. Residues, ends and D or L forms follow the SMILES beside them. ξ: configuration not given here. dNMe2Nal = CN[C@H](Cc1ccc2ccccc2c1)C(=O)O; 1Nal = N[C@@H](Cc1cccc2ccccc12)C(=O)O; d2Nal = N[C@H](Cc1ccc2ccccc2c1)C(=O)O; ξNMe2Nal = CNC(Cc1ccc2ccccc2c1)C(=O)O; ξ2Nal = NC(Cc1ccc2ccccc2c1)C(=O)O; hPhe = N[C@@H](CCc1ccccc1)C(=O)O; Inp = O=C(O)C1CCNCC1; ξK = NCCCCC(N)C(=O)O; Ava = NCCCCC(=O)O
Respond with MET for RAT IV ED50 values of 10 µg and above, NOT MET for values below.

molecule="NCCCCC(=O)N[C@H](Cc1ccc2ccccc2c1)C(=O)N[C@H](Cc1ccc2ccccc2c1)C(=O)N[C@@H](Cc1ccccc1)C(=O)NCC(N)=O [(Ava) b b F G amide] (H-[Ava][d2Nal][d2Nal]FG-NH2)" assigned_class=MET
molecule="NCCCCC(=O)N[C@H](Cc1ccc2ccccc2c1)C(=O)N[C@H](Cc1ccc2ccccc2c1)C(=O)N[C@@H](Cc1ccccc1)C(=O)N[C@@H](CCCCN)C(N)=O [(Ava) b b F K amide] (H-[Ava][d2Nal][d2Nal]FK-NH2)" assigned_class="NOT MET"
molecule="NCCCC[C@H](NC(=O)[C@H](Cc1ccccc1)NC(=O)[C@@H](Cc1ccc2ccccc2c1)NC(=O)[C@@H](Cc1ccc2ccccc2c1)NC(=O)C1CCNCC1)C(N)=O [(inip) b b F K amide, (inip)-DβNal-DβNal-Phe-Lys-amide]" assigned_class="NOT MET"
molecule="NCCCC[C@H](NC(=O)[C@H](Cc1ccccc1)NC(=O)[C@@H](Cc1ccc2ccccc2c1)NC(=O)[C@@H](Cc1ccc2ccccc2c1)NC(=O)C1CCNCC1)C(=O)N[C@@H](Cc1ccc(O)cc1)C(N)=O [(inip) b b F K Y amide] (H-[Inp][d2Nal][d2Nal]FKY-NH2)" assigned_class="NOT MET"
molecule="CN[C@H](Cc1ccc2ccccc2c1)C(=O)N[C@H](Cc1ccc2ccccc2c1)C(=O)N[C@@H](Cc1ccccc1)C(=O)N[C@@H](CCCCN)C(N)=O [nmb b F K amide] (H-[dNMe2Nal][d2Nal]FK-NH2)" assigned_class=MET

Input: Hi team, for NCCCC[C@H](NC(=O)[C@H](Cc1ccccc1)NC(=O)[C@@H](Cc1c[nH]c2ccccc12)NC(=O)[C@@H](Cc1c[nH]c2ccccc12)NC(=O)CN)C(N)=O [G w w F K amide] (H-G[dW][dW]FK-NH2) , is the recorded RAT IV ED50 at or above 10 µg?
Output: NOT MET

Input: One more molecule: CN(C(=O)C(Cc1ccc2ccccc2c1)NC(=O)C1CCNCC1)[C@H](Cc1ccc2ccccc2c1)C(=O)N[C@@H](Cc1ccccc1)C(=O)NC(CCCCN)C(N)=O (stereo partly drawn) [(inip) b nmb F K amide, (inip)-DβNal-(N-Me-DβNal)-Phe-Lys-amide] (H-[Inp][ξ2Nal][dNMe2Nal]F[ξK]-NH2)
Output: NOT MET

Input: One more molecule: CN(C(=O)C1CCNCC1)C(Cc1ccc2ccccc2c1)C(=O)N[C@H](Cc1ccc2ccccc2c1)C(=O)N[C@@H](Cc1ccccc1)C(=O)NC(CCCCN)C(N)=O (stereo partly drawn) [(inip) nmb b F K amide, (inip)-(N-Me-DβNal)-DβNal-Phe-Lys-amide] (H-[Inp][ξNMe2Nal][d2Nal]F[ξK]-NH2)
Output: NOT MET

Input: One more molecule: NCCCCC(=O)N[C@H](Cc1ccc2ccccc2c1)C(=O)N[C@H](Cc1ccc2ccccc2c1)C(=O)N[C@@H](CCc1ccccc1)C(=O)N[C@@H](CCCCN)C(N)=O [(Ava) b b hF K amide] (H-[Ava][d2Nal][d2Nal][hPhe]K-NH2)
Output: MET

Input: One more molecule: NCCCCC(NC(=O)[C@H](Cc1cccc2ccccc12)NC(=O)[C@@H](Cc1ccc2ccccc2c1)NC(=O)C(Cc1ccc2ccccc2c1)NC(=O)C1CCNCC1)C(N)=O (stereo partly drawn) [(inip) b b npA K amide, (inip)-DβNal-DβNal-αNal-Lys-amide] (H-[Inp][ξ2Nal][d2Nal][1Nal][ξK]-NH2)
Output: NOT MET

Input: One more molecule: CN(C(=O)[C@@H](Cc1ccc2ccccc2c1)NC(=O)CCCCN)[C@H](Cc1ccc2ccccc2c1)C(=O)N[C@@H](Cc1ccccc1)C(=O)N[C@@H](CCCCN)C(N)=O [(Ava) b nmb F K amide] (H-[Ava][d2Nal][dNMe2Nal]FK-NH2)
Output: MET

Input: One more molecule: NCCCC[C@H](NC(=O)[C@H](Cc1ccccc1)NC(=O)[C@@H](Cc1ccc2ccccc2c1)NC(=O)[C@@H](Cc1ccc2ccccc2c1)NC(=O)CN)C(N)=O [G b b F K amide] (H-G[d2Nal][d2Nal]FK-NH2)
Output: MET

Input: One more molecule: NCCCCC(=O)N[C@H](Cc1ccc2ccccc2c1)C(=O)N[C@H](Cc1ccc2ccccc2c1)C(=O)N[C@@H](Cc1ccccc1)C(=O)N[C@@H](CC(N)=O)C(N)=O [(Ava) b b F N amide] (H-[Ava][d2Nal][d2Nal]FN-NH2)
Output: MET
